target: serpin enzyme complex receptor (SEC-R) on human hepatoma cell lines (human); assay: 125I-C105Y saturation binding on HepG2 (high) cells, Scatchard analysis
Ends that are not written are not given here.
Quantity Measured: Kd (nM)
Provide only the numeric value, understood in nM.

Data request: Entry under review: CSIPPEVKFNKPFVYLI (also: radio-iodinated with 125I, site not given here) [Peptide C105Y] . Reported Kd?
Data returned: 50
